The values you see were collected from paper PMC9175631.

- TESTED ON: T1, ZIKV virus-like particles (Suriname Z1106033) (Zika virus, Suriname Z1106033, UniProt A0A0U4DG08, strain)
- T1 construct: also called ZIKV-VLP; VLP; source: bought: The Native Antigen Company
- TEST DESCRIPTION: BLI; Octet HTX; MAb 0.1 to 0.3 μg/mL amine-coupled to AR2G biosensor; ZIKV-VLP 0.1 to 1.0 μg/mL or ZIKV E protein 0.2 to 2 μg/mL in 1x kinetic buffer; association 900 s, dissociation 1,200 s; Langmuir 1:1 model; average of two runs
- EXPERIMENTAL PARAMETERS: both partners purified
PARAMETER: koff (s⁻¹)
Give a bare numeral; the unit s⁻¹ is implied.

Query: For the binder anti-ZIKV MAb 306-2 (antibody, V domains shown) VH: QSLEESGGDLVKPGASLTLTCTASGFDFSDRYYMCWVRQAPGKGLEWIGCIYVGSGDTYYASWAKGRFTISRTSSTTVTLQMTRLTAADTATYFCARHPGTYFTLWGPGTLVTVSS VL: DVVMTQTPSSVSAAVGGTVTINCQASQNIVNNLAWYQQRPGQPPKLLIYDTSTLASGVPSRFKGSGSGTEFTLTISDLECADAATYYCQTYYYYNKIINGFGGGTEVVVK , what koff is on record?
Response: 6.34e-05

Query: For the binder anti-ZIKV MAb 242-3 (antibody, V domains shown, recombinant rabbit IgG; 99% amino acid identity with 270-12) VH: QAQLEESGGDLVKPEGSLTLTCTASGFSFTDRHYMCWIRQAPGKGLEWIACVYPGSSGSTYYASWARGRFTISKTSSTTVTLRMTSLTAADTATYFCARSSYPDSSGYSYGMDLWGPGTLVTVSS VL: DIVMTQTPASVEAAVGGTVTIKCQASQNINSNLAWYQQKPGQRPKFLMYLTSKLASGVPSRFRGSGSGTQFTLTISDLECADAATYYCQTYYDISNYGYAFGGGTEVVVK , what koff is on record?
Response: 4.93e-05

Query: For the binder anti-ZIKV MAb 289-3 (antibody, V domains shown) VH: QEELEESGGDLVKPGASLTLTCKASGFSFSSGAYICWVRQAPGKGPEWIACIYTGDGRTYYANWAKRRFTISSSSSTTVALEMPSLTDADTATYFCARAIAVGAGYGVGNYFTLWGPGTLVTVSS VL: DIVMTQTPSSVSAAVGGTVTINCHASENIYGYLSWYQQKPGQPPKLLIYKASTLASGVPSRFKGSGAGTQFTLTITALECADAATYYCQSYYTSSSNADGSENAFGGGTEVVVE , what koff is on record?
Response: 4.58e-05

Query: For the binder anti-ZIKV MAb 270-12 (antibody, V domains shown, source: 293-6E cells, cotransfected, purified (MabSelect SuRe protein A)) VH: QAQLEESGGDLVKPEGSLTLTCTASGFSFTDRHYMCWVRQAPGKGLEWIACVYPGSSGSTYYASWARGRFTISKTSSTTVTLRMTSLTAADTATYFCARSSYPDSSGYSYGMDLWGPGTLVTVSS VL: DIVMTQTPASVEAAVGGTVTIKCQASQDINSNLAWYQQKPGQRPKFLMYLTSKLASGVPSRFRGSGSGTQFTLTISDLECADAATYYCQTYYDISNYGYAFGGGTEVVVK , what koff is on record?
Response: 4.27e-05

Query: For the binder anti-ZIKV MAb 78-2 (antibody, V domains shown) VH: QQQLVESGGGLVKPGASLTLNCKASGLDFSTNSYMCWVRQAPGKGLEWIACIYVGDSSEIYYASWAKGRFTISKTSSTTVTLQMTSLTAADTATYFCARDLPSFTAPYAGYLRLWGPGTLVTVSS VL: QPVLTQPPSLSASLGTTARLTCTLRTGYNVGDYPLLWLQRVPGRPPRYLLTYHTEEFKHQGSGVHSRFSGSKDASENAGVLSISGLQPEDEANYYCYTVHATESSLHYVFGGGTQLTVT , what koff is on record?
Response: 4.28e-05

Query: For the binder anti-ZIKV MAb 11-3 (antibody, V domains shown, recombinant rabbit IgG) VH: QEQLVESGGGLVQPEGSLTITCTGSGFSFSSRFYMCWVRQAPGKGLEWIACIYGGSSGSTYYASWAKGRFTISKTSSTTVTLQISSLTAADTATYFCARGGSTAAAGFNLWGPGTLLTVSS VL: DVVMTQTPASVSATVGGTVTIKCQASEDIYNLLAWYQQKPGQPPKLLIYYASTLASGVPSRFKGSGSGTEFTLTISDLECADAATYYCQCNDYGGTYVPNAFGGGTEVVVK , what koff is on record?
Response: 7.13e-05
